# assayText: Solid-state stress stability test (humidity 90 % RH)
# reportedConditions: Table 12 summary
Where a name gives a salt, the structure may show the parent alone.
propertyLabel: Change in Quality (%) 90 % RH (4 weeks) Degradant

- compound: "Cc1nc2c(O[C@H]3CCOc4cc(F)cc(F)c43)cc(C(=O)N(C)C)cc2[nH]1 [Methanesulfonate Salt (Amorphous Form)]"
  valueMeasured: "Melted"
- compound: "Cc1nc2c(O[C@H]3CCOc4cc(F)cc(F)c43)cc(C(=O)N(C)C)cc2[nH]1 [Methanesulfonate Salt (Crystalline Form)]"
  valueMeasured: "Melted"
- compound: "Cc1nc2c(O[C@H]3CCOc4cc(F)cc(F)c43)cc(C(=O)N(C)C)cc2[nH]1 [Pidolate Salt]"
  valueMeasured: "Melted"
- compound: "Cc1nc2c(O[C@H]3CCOc4cc(F)cc(F)c43)cc(C(=O)N(C)C)cc2[nH]1 [Malate Salt]"
  valueMeasured: "Melted"
